// reported Emax per item
- target: human cannabinoid CB2 receptor (Homo sapiens, UniProt P34972)
- Construct: expressed in transfected cells; host or cells: Saccharomyces cerevisiae strain MMY23 (expresses a chimeric Gpa1/human Galpha-i3 G-protein alpha subunit)
- Sequence (P34972 whole entry): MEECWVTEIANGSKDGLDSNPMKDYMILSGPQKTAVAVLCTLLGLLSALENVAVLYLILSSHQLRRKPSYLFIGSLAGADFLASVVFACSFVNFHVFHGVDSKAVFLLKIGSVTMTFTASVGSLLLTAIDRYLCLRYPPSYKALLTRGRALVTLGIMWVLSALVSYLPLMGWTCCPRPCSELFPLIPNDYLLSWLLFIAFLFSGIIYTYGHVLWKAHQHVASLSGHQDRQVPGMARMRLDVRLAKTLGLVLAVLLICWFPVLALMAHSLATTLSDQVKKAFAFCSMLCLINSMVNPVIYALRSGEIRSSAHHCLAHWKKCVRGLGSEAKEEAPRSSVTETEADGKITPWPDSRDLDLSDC
- measurement-notes: Cannabinoid CB2 receptor agonist activity, yeast reporter assay
- Assay type: cell-based
- details: read-out: efficacy (Emax) at the cloned human cannabinoid CB2 receptor
measurement-name: Emax

[[record]]
compound = "O=C(NCc1ccnc(F)c1)c1cnc(Nc2cccc(Cl)c2)nc1C(F)(F)F [Example 29]"
measured = "> 50%"

[[record]]
compound = "O=C(NCc1ccccc1)c1cnc(Nc2ccc(Cl)cc2)nc1C(F)(F)F [Example 44]"
measured = "< 50%"

[[record]]
compound = "O=C(NCc1ccccc1)c1cnc(Nc2ccccc2Cl)nc1C(F)(F)F [Example 43]"
measured = "< 50%"

[[record]]
compound = "O=C(NCc1ccc(F)cc1)c1cnc(Nc2cc(F)cc(F)c2)nc1C(F)(F)F [Example 85]"
measured = "> 50%"

[[record]]
compound = "COc1ccccc1Nc1ncc(C(=O)NCc2ccccc2)c(C(F)(F)F)n1 [Example 15]"
measured = "> 50%"

[[record]]
compound = "Cc1ccc(CNC(=O)c2cnc(Nc3cccc(Cl)c3)nc2C(F)(F)F)cc1 [Example 78]"
measured = "< 50%"

[[record]]
compound = "CN(Cc1ccc(F)cc1)C(=O)c1cnc(Nc2cccc(Cl)c2)nc1C(F)(F)F [Example 110]"
measured = "< 50%"

[[record]]
compound = "O=C(NCc1ccncc1)c1cnc(Nc2cc(Cl)cc(Cl)c2)nc1C(F)(F)F [Example 22]"
measured = "> 50%"

[[record]]
compound = "O=C(NCc1ccc(F)cc1)c1cnc(Nc2cc(Cl)ccc2F)nc1C(F)(F)F [Example 84]"
measured = "> 50%"

[[record]]
compound = "O=C(NCc1ccnc(F)c1)c1cnc(Nc2ccc(Cl)cc2Cl)nc1C(F)(F)F [Example 95]"
measured = "> 50%"

[[record]]
compound = "Cc1cc(CNC(=O)c2cnc(Nc3cccc(F)c3)nc2C(F)(F)F)ccn1 [Example 77]"
measured = "< 50%"

[[record]]
compound = "O=C(NCc1ccc(F)c(Cl)c1)c1cnc(Nc2cccc(Cl)c2)nc1C(F)(F)F [Example 109]"
measured = "< 50%"

[[record]]
compound = "CN(Cc1ccccc1)C(=O)c1cnc(Nc2ccc(Cl)c(Cl)c2)nc1C(F)(F)F [Example 55]"
measured = "< 50%"

[[record]]
compound = "O=C(NCc1ccncc1)c1cnc(Nc2ccc(Cl)cc2Cl)nc1C(F)(F)F [Example 17]"
measured = "> 50%"

[[record]]
compound = "O=C(NCc1ccncc1)c1cnc(Nc2cccc(Cl)c2)nc1C(F)(F)F [Example 2]"
measured = "> 50%"

[[record]]
compound = "O=C(NCc1ccnc(F)c1)c1cnc(Nc2cccc(Br)c2)nc1C(F)(F)F [Example 88]"
measured = "> 50%"

[[record]]
compound = "O=C(NCc1ccnc(F)c1)c1cnc(Nc2cccc(F)c2)nc1C(F)(F)F [Example 89]"
measured = "> 50%"

[[record]]
compound = "COc1ccc(CNC(=O)c2cnc(Nc3cccc(Cl)c3)nc2C(F)(F)F)cc1 [Example 4]"
measured = "> 50%"


###

// reported Emax per item
- target: human cannabinoid CB2 receptor (Homo sapiens)
- Construct: expressed in transfected cells; host or cells: Saccharomyces cerevisiae strain MMY23 (expresses a chimeric Gpa1/human Galpha-i3 G-protein alpha subunit)
- measurement-notes: Cannabinoid CB2 receptor agonist activity, yeast reporter assay
- Format: cell-based
- details: read-out: efficacy (Emax) at the cloned human cannabinoid CB2 receptor
measurement-name: Emax

[[record]]
structure_smiles_string = "N#Cc1ccc(CNC(=O)c2cnc(Nc3cccc(Cl)c3)nc2C(F)(F)F)cc1"
measured = "> 50%"

[[record]]
structure_smiles_string = "CN(Cc1ccccc1)C(=O)c1cnc(Nc2ccc(Cl)cc2Cl)nc1C(F)(F)F"
measured = "< 50%"

[[record]]
structure_smiles_string = "COc1cccc(Nc2ncc(C(=O)NCc3ccncc3)c(C(F)(F)F)n2)c1"
measured = "> 50%"

[[record]]
structure_smiles_string = "N#Cc1ccc(CNC(=O)c2cnc(Nc3cccc(Cl)c3Cl)nc2C(F)(F)F)cc1"
measured = "< 50%"

[[record]]
structure_smiles_string = "O=C(NCc1cccnc1)c1cnc(Nc2cccc(Cl)c2)nc1C(F)(F)F"
measured = "< 50%"

[[record]]
structure_smiles_string = "N#Cc1ccc(CNC(=O)c2cnc(Nc3cccc(Br)c3)nc2C(F)(F)F)cc1"
measured = "< 50%"

[[record]]
structure_smiles_string = "O=C(NCc1ccccc1)c1cnc(Nc2cccc(Br)c2)nc1C(F)(F)F"
measured = "> 50%"

[[record]]
structure_smiles_string = "N#Cc1ccc(CNC(=O)c2cnc(Nc3cc(Cl)cc(Cl)c3)nc2C(F)(F)F)cc1"
measured = "> 50%"


###

- target: human cannabinoid CB2 receptor (Homo sapiens, UniProt P34972)
- Construct: expressed in transfected cells; host or cells: Saccharomyces cerevisiae strain MMY23 (expresses a chimeric Gpa1/human Galpha-i3 G-protein alpha subunit)
- measurement-notes: Cannabinoid CB2 receptor agonist activity, yeast reporter assay
- Assay type: cell-based
- details: read-out: efficacy (Emax) at the cloned human cannabinoid CB2 receptor
measurement-name: Emax

[[record]]
molecule = "CN(Cc1ccccc1)C(=O)c1cnc(Nc2c(Cl)cccc2Cl)nc1C(F)(F)F [Example 10]"
measured = "> 50%"

[[record]]
molecule = "CN(Cc1ccccc1)C(=O)c1cnc(Nc2cccc(Cl)c2)nc1C(F)(F)F [Example 3]"
measured = "> 50%"

[[record]]
molecule = "O=C(NCc1ccccc1)c1cnc(Nc2c(Cl)cccc2Cl)nc1C(F)(F)F [Example 98]"
measured = "> 50%"

[[record]]
molecule = "O=C(NCc1ccc(F)cc1)c1cnc(Nc2cccc(F)c2)nc1C(F)(F)F [Example 23]"
measured = "> 50%"

[[record]]
molecule = "CN(Cc1ccccc1)C(=O)c1cnc(Nc2ccc(Cl)cc2)nc1C(F)(F)F [Example 45]"
measured = "< 50%"


###

- target: human cannabinoid CB2 receptor (Homo sapiens, UniProt P34972)
- Construct: expressed in transfected cells; host or cells: Saccharomyces cerevisiae strain MMY23 (expresses a chimeric Gpa1/human Galpha-i3 G-protein alpha subunit)
- measurement-notes: Cannabinoid CB2 receptor agonist activity, yeast reporter assay
- Assay type: cell-based
pEC50: −log10 of the molar value.
// reported pEC50 per item
measurement-name: pEC50

[[record]]
structure_smiles_string = "COc1cccc(CNC(=O)c2cnc(Nc3cccc(Cl)c3)nc2C(F)(F)F)c1"
target = "human cannabinoid CB2 receptor (Homo sapiens, UniProt P34972)"
measurement_name = "pEC50"
measured = "< 6.00"

[[record]]
structure_smiles_string = "O=C(NCc1ccccc1)c1cnc(Nc2c(Cl)cccc2Cl)nc1C(F)(F)F"
target = "human cannabinoid CB2 receptor (Homo sapiens, UniProt P34972)"
measurement_name = "pEC50"
measured = "6.00 to 7.70"

[[record]]
structure_smiles_string = "O=C(NCc1ccccc1)c1cnc(Nc2cc(Cl)ccc2Cl)nc1C(F)(F)F"
target = "human cannabinoid CB2 receptor (Homo sapiens, UniProt P34972)"
measurement_name = "pEC50"
measured = "< 6.00"

[[record]]
structure_smiles_string = "CCN(Cc1ccccc1)C(=O)c1cnc(Nc2ccccc2Cl)nc1C(F)(F)F"
target = "human cannabinoid CB2 receptor (Homo sapiens, UniProt P34972)"
measurement_name = "pEC50"
measured = "< 6.00"

[[record]]
structure_smiles_string = "N#Cc1ccc(CNC(=O)c2cnc(Nc3cccc(Cl)c3Cl)nc2C(F)(F)F)cc1"
target = "human cannabinoid CB2 receptor (Homo sapiens, UniProt P34972)"
measurement_name = "pEC50"
measured = "< 6.00"

[[record]]
structure_smiles_string = "CN(Cc1ccccc1)C(=O)c1cnc(Nc2ccc(Cl)cc2Cl)nc1C(F)(F)F"
target = "human cannabinoid CB2 receptor (Homo sapiens, UniProt P34972)"
measurement_name = "pEC50"
measured = "< 6.00"

[[record]]
structure_smiles_string = "O=C(NCc1ccc(F)cc1)c1cnc(Nc2cc(C(F)(F)F)cc(C(F)(F)F)c2)nc1C(F)(F)F"
target = "human cannabinoid CB2 receptor (Homo sapiens, UniProt P34972)"
measurement_name = "pEC50"
measured = "< 6.00"

[[record]]
structure_smiles_string = "O=C(NCc1ccc(F)cc1)c1cnc(Nc2cc(F)cc(F)c2)nc1C(F)(F)F"
target = "human cannabinoid CB2 receptor (Homo sapiens, UniProt P34972)"
measurement_name = "pEC50"
measured = "6.00 to 7.70"


###

- target: human cannabinoid CB2 receptor (Homo sapiens, UniProt P34972)
- Construct: expressed in transfected cells; host or cells: Saccharomyces cerevisiae strain MMY23 (expresses a chimeric Gpa1/human Galpha-i3 G-protein alpha subunit)
- measurement-notes: Cannabinoid CB2 receptor agonist activity, yeast reporter assay
- Type: cell-based
- details: read-out: efficacy (Emax) at the cloned human cannabinoid CB2 receptor
- Procedure: Yeast (Saccharomyces cerevisiae) cells expressing the human cannabinoid CB2 receptor were generated by integration of an expression cassette into the ura3 chromosomal locus of yeast strain MMY23. […] Agonists were prepared as 10 mM stocks in DMSO. […] Fluorescence was plotted against compound concentration and iteratively curve fitted using a four parameter fit to generate a concentration effect value.
// reported Emax per item
measurement-name: Emax

[[record]]
molecule = "O=C(NCc1ccccc1)c1cnc(Nc2cc(Cl)ccc2Cl)nc1C(F)(F)F [Example 56]"
measured = "< 50%"

[[record]]
molecule = "O=C(NCc1ccncn1)c1cnc(Nc2cccc(F)c2)nc1C(F)(F)F [Example 76]"
measured = "< 50%"

[[record]]
molecule = "N#Cc1ccc(Nc2ncc(C(=O)NCc3ccccc3)c(C(F)(F)F)n2)cc1 [Example 27]"
measured = "> 50%"

[[record]]
molecule = "N#Cc1ccc(CNC(=O)c2cnc(Nc3cc(Cl)ccc3Cl)nc2C(F)(F)F)cc1 [Example 67]"
measured = "< 50%"

[[record]]
molecule = "O=C(NCc1ccc(OC(F)(F)F)cc1)c1cnc(Nc2cccc(Cl)c2)nc1C(F)(F)F [Example 62]"
measured = "< 50%"

[[record]]
molecule = "O=C(NCc1ccc(F)cc1)c1cnc(Nc2ccc(C(F)(F)F)c(F)c2)nc1C(F)(F)F [Example 104]"
measured = "> 50%"

[[record]]
molecule = "O=C(NCc1ccc(F)cc1)c1cnc(Nc2ccc(F)c(Cl)c2)nc1C(F)(F)F [Example 82]"
measured = "> 50%"

[[record]]
molecule = "NC(=O)c1ccc(CNC(=O)c2cnc(Nc3cccc(Cl)c3)nc2C(F)(F)F)cc1 [Example 105]"
measured = "< 50%"

[[record]]
molecule = "O=C(NCc1ccc(F)cc1)c1cnc(Nc2cccc(Cl)c2Cl)nc1C(F)(F)F [Example 99]"
measured = "> 50%"

